Biological target: TNFR1
Sequence (P19438 whole entry): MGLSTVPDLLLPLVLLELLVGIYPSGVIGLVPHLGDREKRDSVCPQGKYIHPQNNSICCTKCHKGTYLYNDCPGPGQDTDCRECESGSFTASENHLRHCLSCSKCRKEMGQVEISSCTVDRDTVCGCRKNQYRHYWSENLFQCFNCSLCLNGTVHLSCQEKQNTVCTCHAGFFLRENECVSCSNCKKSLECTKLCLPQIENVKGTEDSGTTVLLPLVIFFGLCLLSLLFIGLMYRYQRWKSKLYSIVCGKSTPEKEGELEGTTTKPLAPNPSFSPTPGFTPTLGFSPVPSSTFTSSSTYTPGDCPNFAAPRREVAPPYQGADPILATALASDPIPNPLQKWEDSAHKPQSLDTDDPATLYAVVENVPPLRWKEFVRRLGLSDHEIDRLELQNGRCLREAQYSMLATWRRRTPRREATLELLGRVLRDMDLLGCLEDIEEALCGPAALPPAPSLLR
Assay: MST, fluorescently labelled TNFR1 with an SN10 dilution series
readout: pKd
Worth noting: pKd values are minus log10 of concentrations stated in mol/L.

Look up pKd for this binder: DEQHLETELH (modifications not checked) [selective TNFR1 antagonist peptide Hydrostatin-SN10] 5.55
